Cited source for all entries: ChEMBL document CHEMBL4308846

targetEntity: CDK7/Cyclin H/MNAT1 (Homo sapiens, UniProt P50613)
Sequence (P51946 whole entry): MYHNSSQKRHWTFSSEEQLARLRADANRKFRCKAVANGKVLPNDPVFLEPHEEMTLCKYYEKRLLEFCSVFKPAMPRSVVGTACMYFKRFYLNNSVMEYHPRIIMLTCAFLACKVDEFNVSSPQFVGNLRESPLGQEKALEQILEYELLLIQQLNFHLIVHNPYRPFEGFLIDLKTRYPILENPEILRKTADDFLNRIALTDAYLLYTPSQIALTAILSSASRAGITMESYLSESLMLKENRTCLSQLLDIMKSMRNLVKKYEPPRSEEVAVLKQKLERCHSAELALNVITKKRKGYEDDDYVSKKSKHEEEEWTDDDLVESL
Sequence (P50613 whole entry): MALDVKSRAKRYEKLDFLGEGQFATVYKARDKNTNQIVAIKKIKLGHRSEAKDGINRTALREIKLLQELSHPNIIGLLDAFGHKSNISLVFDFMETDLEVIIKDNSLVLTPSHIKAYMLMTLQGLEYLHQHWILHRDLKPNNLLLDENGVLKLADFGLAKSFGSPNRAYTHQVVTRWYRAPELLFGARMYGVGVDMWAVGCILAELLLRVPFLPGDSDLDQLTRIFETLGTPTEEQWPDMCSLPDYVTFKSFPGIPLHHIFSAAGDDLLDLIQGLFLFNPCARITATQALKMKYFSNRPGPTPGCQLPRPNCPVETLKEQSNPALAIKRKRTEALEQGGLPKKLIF
Sequence (P51948 whole entry, further chain): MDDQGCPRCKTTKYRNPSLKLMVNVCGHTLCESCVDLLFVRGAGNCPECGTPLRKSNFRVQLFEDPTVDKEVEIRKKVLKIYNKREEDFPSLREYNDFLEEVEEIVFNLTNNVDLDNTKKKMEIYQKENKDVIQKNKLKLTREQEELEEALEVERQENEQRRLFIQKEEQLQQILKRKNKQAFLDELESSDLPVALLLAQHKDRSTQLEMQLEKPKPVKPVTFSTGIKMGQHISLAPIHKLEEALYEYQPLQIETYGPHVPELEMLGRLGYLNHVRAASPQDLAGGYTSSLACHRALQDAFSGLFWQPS
testName: biochemical
# yes (1) = IC50 below 2 µM (exclusive); no (0) = IC50 at/above 2 µM

1. CC(=O)c1cnc2oc3ccc(O)cc3c2c1-c1ccccc1 = no (0)
2. COc1ccc(OC)c2c(=S)c3ccccc3[nH]c12 = no (0)
3. O=C1Nc2ccccc2/C1=C\c1c(Cl)[nH]c2ccccc12 = no (0)
4. O=C1Nc2ccc3ncsc3c2/C1=C/Nc1ccc(S(=O)(=O)Nc2ccccn2)cc1 = yes (1)
5. CCCCOc1c(C(=O)c2c(F)cc(C)cc2F)c[nH]c2nncc1-2 = yes (1)
6. CC(C)c1cnc(NC(=O)Cc2ccccc2)s1 = yes (1)
7. CCOC(=O)c1cnc2oc3ccc(O)cc3c2c1-c1ccccc1 = no (0)
8. CCn1cnc2c(Nc3cccc(Cl)c3)nc(N[C@@H]3CCCC[C@@H]3N)nc21 = yes (1)
9. CN1CCN(c2ccc(Nc3ncc4cc(C#N)c(=O)n(C5CCCC5)c4n3)cc2)CC1 = no (0)
10. OCCCNc1cc(-c2ccnc(Nc3cccc(Cl)c3)n2)ccn1 = yes (1)
11. CCN(CC)C(=O)c1ccc(Nc2nc(OCC3CCCCC3)c3nc[nH]c3n2)cc1 = no (0)
